System: liver cholesterol
ASSAY_EXPLANATION: Liver cholesterol (deposition of cholesterol and fat in the liver) of mice fed a cholesterol-rich diet (Table 1)
Assay type: in vivo
MEASUREMENT_CONTEXT: experiment [X]; 0.2% in diet, oral, 8 to 12 days; control 3293
What Liver cholesterol was measured for each of the following?
Numbers only, in mg/100 g..

// below: answered compounds
[
  {
    "COMPOUND": "CCCCCCCC/C=C\\CCCCCCCC(=O)NC(C)c1ccc(CC)cc1 (stereo not drawn) [drawing 63]",
    "Liver cholesterol (mg/100 g.)": 1210
  },
  {
    "COMPOUND": "CCCCC/C=C\\C/C=C\\CCCCCCCC(=O)NC(C)c1ccc(C)cc1 (stereo not drawn) [drawing 61]",
    "Liver cholesterol (mg/100 g.)": 820
  },
  {
    "COMPOUND": "CC/C=C\\C/C=C\\C/C=C\\CCCCCCCC(=O)NC(C)c1ccc(C)cc1 (stereo not drawn) [drawing 67]",
    "Liver cholesterol (mg/100 g.)": 1015
  },
  {
    "COMPOUND": "CCCCCCCC/C=C\\CCCCCCCC(=O)NC(C)c1ccc(CC)cc1 (racemic)",
    "Liver cholesterol (mg/100 g.)": 1010
  },
  {
    "COMPOUND": "CCCCCCCC/C=C\\CCCCCCCC(=O)NC(C)c1ccc(CC)cc1 (stereo not drawn) [drawing 64]",
    "Liver cholesterol (mg/100 g.)": 841
  }
]

The record that follows has no Liver cholesterol shown yet.
Can you share its Liver cholesterol? I mean this compound: CC/C=C\C/C=C\C/C=C\CCCCCCCC(=O)NC(C)c1ccc(C)cc1 (stereo not drawn) [drawing 66] 1000

* * *

System: liver cholesterol
ASSAY_EXPLANATION: Liver cholesterol (deposition of cholesterol and fat in the liver) of mice fed a cholesterol-rich diet (Table 1)
Format: in vivo
MEASUREMENT_CONTEXT: experiment [VIII]; 0.2% in diet, oral, 8 to 12 days; control 2652
PARAMETER: Liver cholesterol (mg/100 g.)
Numbers only, in mg/100 g..

// below: answered compounds
[
  {
    "COMPOUND": "CCCCC/C=C\\C/C=C\\CCCCCCCC(=O)NC(C)c1ccccc1[N+](=O)[O-] (stereo not drawn)",
    "Liver cholesterol (mg/100 g.)": 1003
  },
  {
    "COMPOUND": "CCCCC/C=C\\C/C=C\\CCCCCCCC(=O)NC(C)c1ccc([N+](=O)[O-])cc1 (stereo not drawn) [drawing 44]",
    "Liver cholesterol (mg/100 g.)": 1603
  },
  {
    "COMPOUND": "CCCCC/C=C\\C/C=C\\CCCCCCCC(=O)NC(C)c1cccc([N+](=O)[O-])c1 (stereo not drawn)",
    "Liver cholesterol (mg/100 g.)": 992
  },
  {
    "COMPOUND": "CCCCCCCC/C=C\\CCCCCCCC(=O)NC(C)c1ccccc1[N+](=O)[O-] (stereo not drawn)",
    "Liver cholesterol (mg/100 g.)": 1113
  },
  {
    "COMPOUND": "CCCCC/C=C\\C/C=C\\CCCCCCCC(=O)NC(CC)c1ccc([N+](=O)[O-])cc1 (stereo not drawn)",
    "Liver cholesterol (mg/100 g.)": 980
  }
]

Can you share its Liver cholesterol? I mean this compound: CC/C=C\C/C=C\C/C=C\CCCCCCCC(=O)NC(CC)c1ccccc1[N+](=O)[O-] (stereo not drawn) 1091

Each recorded value in this set is attributed to patent US3995059A.
